# Tested system: Neuronal acetylcholine receptor; alpha4/beta2 (Rattus norvegicus, UniProt P09483+P12390)
# Sequence (P09483 whole entry): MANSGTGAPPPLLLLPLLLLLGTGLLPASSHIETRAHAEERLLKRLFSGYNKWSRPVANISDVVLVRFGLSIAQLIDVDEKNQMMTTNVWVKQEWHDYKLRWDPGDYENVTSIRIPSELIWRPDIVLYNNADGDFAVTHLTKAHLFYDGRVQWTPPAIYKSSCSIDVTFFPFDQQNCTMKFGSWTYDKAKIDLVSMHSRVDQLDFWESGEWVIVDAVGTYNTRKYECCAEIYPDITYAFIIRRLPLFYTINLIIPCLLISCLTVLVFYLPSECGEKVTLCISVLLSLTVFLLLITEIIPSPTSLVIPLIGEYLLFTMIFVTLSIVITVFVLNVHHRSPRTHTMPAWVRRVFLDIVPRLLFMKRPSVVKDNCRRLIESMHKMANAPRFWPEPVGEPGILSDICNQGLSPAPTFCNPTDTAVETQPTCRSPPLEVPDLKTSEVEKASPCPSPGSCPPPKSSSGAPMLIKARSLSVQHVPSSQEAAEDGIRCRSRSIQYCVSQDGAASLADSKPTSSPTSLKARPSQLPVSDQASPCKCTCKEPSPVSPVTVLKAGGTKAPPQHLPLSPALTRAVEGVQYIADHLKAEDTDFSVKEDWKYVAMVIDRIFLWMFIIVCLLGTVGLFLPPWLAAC
# Sequence (P12390 whole entry): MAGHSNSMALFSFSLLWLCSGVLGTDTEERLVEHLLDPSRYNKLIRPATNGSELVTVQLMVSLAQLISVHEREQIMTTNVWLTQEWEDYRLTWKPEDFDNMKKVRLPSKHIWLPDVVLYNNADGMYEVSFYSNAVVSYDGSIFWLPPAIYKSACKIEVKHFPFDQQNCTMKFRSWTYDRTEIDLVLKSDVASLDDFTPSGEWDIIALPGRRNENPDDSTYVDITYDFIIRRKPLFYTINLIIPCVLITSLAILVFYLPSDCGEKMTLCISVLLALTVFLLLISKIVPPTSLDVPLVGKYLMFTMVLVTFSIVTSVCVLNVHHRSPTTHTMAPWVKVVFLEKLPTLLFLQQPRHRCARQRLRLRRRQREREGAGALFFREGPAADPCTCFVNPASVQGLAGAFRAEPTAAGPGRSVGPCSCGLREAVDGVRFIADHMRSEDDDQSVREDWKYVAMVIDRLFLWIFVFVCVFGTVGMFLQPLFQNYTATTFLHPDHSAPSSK
# Method notes: Nicotinic acetylcholine receptor binding activity was determined by ability to displace [3H]- (-) cytisine binding from whole rat brain synaptic membranes.
# label = TRUE if Ki < 0.06 µM else FALSE

Worked cases, answers included:
CN1CC[C@H]1COc1cncnc1	TRUE
CN1CC[C@H]1COc1cccnn1	TRUE
Clc1ccc(OCCN2CCCC2)nn1	FALSE
CN1CC[C@H](Oc2cccnc2)C1	TRUE
CN1CC[C@H]1COc1ccc(Cl)nn1	FALSE

Please find the next compound below.
Data request: API: query returns whether the compound falls strictly under 0.06 µM in Ki. Query: CN1CCC(Oc2cnccn2)C1 (configuration not stated)
Data returned: FALSE
